Tested on: YT (IL-2 2.5 ng/mL)
Assay: percent inhibition of viability; higher = more inhibition
Settings: 72 h; 10000 nM
Mark T only for percent inhibition of viability values smaller than 30%; exact matches and larger values are F.

Take a look at these entries with their results.
compound	classification
COc1ccc(-c2cc3c(C)nc(N)nc3n([C@H]3CC[C@H](OCCO)CC3)c2=O)cn1 (max concentration tested 10000 nM)	F
C[C@]12C=CC(=O)C=C1CC[C@@H]1[C@@H]2C(=O)C[C@@]2(C)[C@H]1CC[C@]2(O)C(=O)CO [Prednisone] (max concentration tested 10000 nM)	F
Cn1nnc2c(C(N)=O)ncn2c1=O [Temozolomide] (max concentration tested 100000 nM)	T
Cc1c(Cn2c(C)nc3c(C(=O)O)cc(N4CCOCC4)cc32)cccc1C(F)(F)F (max concentration tested 10000 nM)	T
CN(C[C@@H]1COCCO1)S(=O)(=O)Nc1ccc2ccc3ncc(-c4cnn(C)c4)cc3c(=O)c2c1 [MK-2461] (max concentration tested 10000 nM)	T
O=C(NOCC1CC1)c1ccc(F)c(F)c1Nc1ccc(I)cc1Cl (max concentration tested 10000 nM)	F

Consider the record given below.
Ask | Please let me know if CN[C@@H]1C[C@H]2O[C@@](C)([C@@H]1OC)n1c3ccccc3c3c4c(c5c6ccccc6n2c5c31)C(=O)N[C@H]4O [UCN-01] (max concentration tested 10000 nM) shows percent inhibition of viability below 30%.
Reply | F

----------
System: SNK-6 (IL-2 2.5 ng/mL)
Assay: percent inhibition of viability; higher = more inhibition
Settings: 72 h; 10 nM
quantity measured: percent inhibition of viability (%)
Form entry: value (%) — number only.

compound	assayed target	quantity measured	unit abbrev	meas value
CN1CCc2c(c3ccccc3n2Cc2ccc(C(=O)NO)cc2)C1 [Tubastatin A] (max concentration tested 10000 nM)	SNK-6 (IL-2 2.5 ng/mL)	percent inhibition of viability	%	0.91
COc1cc2c(N3CCN(C(=O)Nc4ccc(OC(C)C)cc4)CC3)ncnc2cc1OCCCN1CCCCC1 [Tandutinib] (max concentration tested 1000 nM)	SNK-6 (IL-2 2.5 ng/mL)	percent inhibition of viability	%	1.36
Cc1nc(Nc2ncc(C(=O)Nc3c(C)cccc3Cl)s2)cc(N2CCN(CCO)CC2)n1 [Dasatinib] (max concentration tested 1000 nM)	SNK-6 (IL-2 2.5 ng/mL)	percent inhibition of viability	%	-10.2
Nc1cc(F)ccc1NC(=O)/C=C/c1cnn(C/C=C/c2ccccc2)c1 [RGFP966] (max concentration tested 10000 nM)	SNK-6 (IL-2 2.5 ng/mL)	percent inhibition of viability	%	7.31
CC(C)C(=O)Nc1ccc([N+](=O)[O-])c(C(F)(F)F)c1 [Flutamide] (max concentration tested 10000 nM)	SNK-6 (IL-2 2.5 ng/mL)	percent inhibition of viability	%	46.8

Ask | # return percent inhibition of viability of CCC1=C[C@@H]2CN(C1)Cc1c([nH]c3ccccc13)[C@@](C(=O)OC)(c1cc3c(cc1OC)N(C)[C@H]1[C@@](O)(C(=O)OC)[C@H](OC(C)=O)[C@]4(CC)C=CCN5CC[C@]31[C@@H]54)C2 [Vinorelbine] (max concentration tested 10000 nM) (system: SNK-6 (IL-2 2.5 ng/mL))
Reply | 78.3

Ask | # return percent inhibition of viability of O=C(NOCC1CC1)c1ccc(F)c(F)c1Nc1ccc(I)cc1Cl (max concentration tested 10000 nM) (system: SNK-6 (IL-2 2.5 ng/mL))
Reply | -11.4

Ask | # return percent inhibition of viability of CN[C@@H]1C[C@H]2O[C@@](C)([C@@H]1OC)n1c3ccccc3c3c4c(c5c6ccccc6n2c5c31)C(=O)N[C@H]4O [UCN-01] (max concentration tested 10000 nM) (system: SNK-6 (IL-2 2.5 ng/mL))
Reply | 34

Ask | # return percent inhibition of viability of CO[C@@H]1[C@H](N(C)C(=O)c2ccccc2)C[C@H]2O[C@]1(C)n1c3ccccc3c3c4c(c5c6ccccc6n2c5c31)C(=O)NC4 [Midostaurin] (max concentration tested 10000 nM) (system: SNK-6 (IL-2 2.5 ng/mL))
Reply | 8.75

Ask | # return percent inhibition of viability of COc1ccc(COc2cc3oc(=O)c4cc(C(C)O)ccc4c3cc2OC)cc1 (stereo unspecified) [Palomid-529] (max concentration tested 10000 nM) (system: SNK-6 (IL-2 2.5 ng/mL))
Reply | -23.8

Ask | # return percent inhibition of viability of CN1CCN(CCOc2cc(OC3CCOCC3)c3c(Nc4c(Cl)ccc5c4OCO5)ncnc3c2)CC1 [Saracatinib] (max concentration tested 10000 nM) (system: SNK-6 (IL-2 2.5 ng/mL))
Reply | -15.1

----------
Test system: NK-YS (IL-2 2.5 ng/mL)
Test: drug sensitivity score (DSS) (DSS units); higher = more sensitive; extreme values may be limits of the assay
Settings: 72 h
Think of 10 as a floor: if drug sensitivity score stands on it or above, it is condition met; beneath it, condition not met.

molecule	classification
Cn1nnc2c(C(N)=O)ncn2c1=O [Temozolomide] (max concentration tested 100000 nM)	condition not met
COc1cc2ncnc(Oc3cccc(NC(=O)Nc4cc(C(C)(C)C(F)(F)F)on4)c3)c2cc1OC (max concentration tested 10000 nM)	condition not met
CO[C@H]1/C=C\C=C(/C)C(=O)NC2=CC(=O)C(NCCN(C)C)=C(C[C@@H](C)C[C@H](OC)[C@H](O)[C@@H](C)/C=C(\C)[C@@H]1OC(N)=O)C2=O [Alvespimycin] (max concentration tested 1000 nM)	condition met
Oc1c2ccccc2c2c3c(cccc13)N=N2 (max concentration tested 100000 nM)	condition not met
COc1ccc(-c2ccc3c(N4CCOC[C@@H]4C)nc(N4CCOC[C@@H]4C)nc3n2)cc1CO [AZD8055] (max concentration tested 10000 nM)	condition met

Ask | State whether the measured drug sensitivity score reaches 10, counting equality as reaching it, for NC(=O)Nc1sc(-c2ccc(F)cc2)cc1C(N)=O [TPCA-1] (max concentration tested 25000 nM)
Reply | condition met

Ask | State whether the measured drug sensitivity score reaches 10, counting equality as reaching it, for Cc1ncc(-c2ccnc(Nc3ccc(S(C)(=O)=O)cc3)n2)n1C(C)C [AZD-5438] (max concentration tested 10000 nM)
Reply | condition met

Ask | State whether the measured drug sensitivity score reaches 10, counting equality as reaching it, for CN[C@@H]1C[C@H]2O[C@@](C)([C@@H]1OC)n1c3ccccc3c3c4c(c5c6ccccc6n2c5c31)C(=O)N[C@H]4O [UCN-01] (max concentration tested 10000 nM)
Reply | condition met

Ask | State whether the measured drug sensitivity score reaches 10, counting equality as reaching it, for CC(C)(C)Cn1c(N)nc2ccc(-c3[nH]c(C(C)(C)C)nc3-c3ccc(F)cc3)nc21 [Ralimetinib] (max concentration tested 10000 nM)
Reply | condition not met

Ask | State whether the measured drug sensitivity score reaches 10, counting equality as reaching it, for CO[C@H]1C[C@@H]2CC[C@@H](C)[C@@](O)(O2)C(=O)C(=O)N2CCCC[C@H]2C(=O)O[C@H]([C@H](C)C[C@@H]2CC[C@@H](O)[C@H](OC)C2)CC(=O)[C@H](C)/C=C(\C)[C@@H](O)[C@@H](OC)C(=O)[C@H](C)C[C@H](C)/C=C/C=C/C=C/1C [Sirolimus] (max concentration tested 100 nM)
Reply | condition met

Ask | State whether the measured drug sensitivity score reaches 10, counting equality as reaching it, for C[C@@H](Oc1cc(-c2cnn(C3CCNCC3)c2)cnc1N)c1c(Cl)ccc(F)c1Cl [Crizotinib] (max concentration tested 1000 nM)
Reply | condition not met

----------
System: normal NK cells expanded with K562-aAPC
Assay: percent inhibition of viability; higher = more inhibition
Conditions: 72 h; IL-2 2.5 ng/mL; 1 nM
quantity measured: percent inhibition of viability (%)
Form entry: value (%) — number only.

Worked set:
compound	percent inhibition of viability [%]
CS(=O)(=O)c1ccc(C2=C(c3ccccc3)C(=O)OC2)cc1 [Rofecoxib] (max concentration tested 10000 nM)	10.3
C/C(=C\c1csc(C)n1)[C@@H]1C[C@@H]2O[C@]2(C)CCC[C@H](C)[C@H](O)[C@@H](C)C(=O)C(C)(C)[C@@H](O)CC(=O)O1 [Patupilone] (max concentration tested 1000 nM)	-3.64
O=C(Nc1c[nH]nc1-c1nc2ccc(CN3CCOCC3)cc2[nH]1)NC1CC1 [AT9283] (max concentration tested 1000 nM)	-5.39
Cn1cc(CNCC2CCN(c3ncc(C(=O)NO)cn3)CC2)c2ccccc21 [Quisinostat] (max concentration tested 1000 nM)	2.67
CN(C)Cc1ccc(S(=O)(=O)n2ccc(/C=C/C(=O)NO)c2)cc1 [Resminostat] (max concentration tested 10000 nM)	-4.58

Now for a further compound.
Ask | Write down percent inhibition of viability measured for item CC[C@H](CO)Nc1nc(NCc2ccccc2)c2ncn(C(C)C)c2n1 [Seliciclib] (max concentration tested 10000 nM)
Reply | -5.19
